Listed next: entries and their corresponding nuclei count.
Experiment: endothelial E-selectin expression blockers – imaging, HUVEC, immunofluorescence, MLSMR starter and 10KST1 sets, primary screen (AID 487);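 further: 100% = median nuclei count of all wells on the same plate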
Conditions: HUVEC TNFalpha-induced E-selectin immunofluorescence imaging, at 2 µM; measured here: cell number, toxicity
Kindly answer with a numeric value in %, unit omitted.

>  <compound>
CC(=O)c1cn(CC(=O)NCc2ccc3c(c2)OCO3)c2ccccc12

>  <nuclei count [%]>
107

$$$$
>  <compound>
CCOC(=O)c1ccccc1NC(=O)c1ccc2c(=O)n3c(nc2c1)CCCCC3

>  <nuclei count [%]>
81.5

$$$$

Query: Tell me its nuclei count given O=C(CN1C(=O)CSC1=O)N1CCc2ccccc2C1 as the entry.
Reply: 107

Query: Identify nuclei count associated with the compound CCOC(=O)N1CCN(C(=O)c2ccc3c(=O)n(Cc4ccc(OC)cc4)c(=S)[nH]c3c2)CC1
Reply: 88.2

Query: Assign nuclei count to the following record: COc1ccc(CN(CC(=O)NCC2CCCO2)C(=O)CNS(=O)(=O)c2ccc(C)cc2)cc1 (stereo not drawn)
Reply: 92.4

Query: Indicate its recorded nuclei count; the compound in question is COc1ccc(-n2c(SCC(=O)c3c(N)n(C)c(=O)n(C)c3=O)nc3ccccc32)cc1
Reply: 106

Query: Provide only the value of recorded nuclei count for CC(=O)Nc1ccc(N=Cc2ccc[nH]2)cc1
Reply: 99.4

Query: Report measured nuclei count; entry is COc1ccc(C(=O)Nc2ccc(S(=O)(=O)NC(C)=O)cc2)cc1
Reply: 107

Query: Output nuclei count of CCN(CC)CCCNC(=O)c1cn(C)c2ccc(S(=O)(=O)N(C)C)cc2c1=O
Reply: 98.9

Query: Input O=C(c1ccccc1Cl)N1CCc2ccccc2C1 , output reported nuclei count.
Reply: 112

Query: Supply reported nuclei count belonging to this compound: CCOC(=O)N1CCC(NC(=O)c2cc(C(=O)NC3CCCC3)ccc2CO)CC1
Reply: 106

Query: State its nuclei count for this compound: COc1ccc(S(=O)(=O)N2CCC(C(=O)NCc3ccco3)CC2)cc1
Reply: 114

Query: Specify measured nuclei count for O=C1CCCCCN1CSc1nc2ccccc2s1 .
Reply: 97.6

Query: Annotate the compound NC(=O)CCS(=O)(=O)CCN1CCCCC1 with its measured nuclei count.
Reply: 116

Query: State its nuclei count for this compound: CCOC(=O)CSC1=C(C#N)C(c2ccc(C)o2)CC(=O)N1 (stereo not drawn)
Reply: 95

Query: In one line, give reported nuclei count of the entry CCOC(=O)Cc1nnc(NC(=O)c2ncn[nH]2)s1 .
Reply: 119

Query: Note down nuclei count recorded for Cc1cccc(C(=O)N2CCC(n3nnc4cc(F)ccc43)CC2)c1
Reply: 106

Query: Report nuclei count, nothing else, for this compound: Cc1cc(NC(=O)COc2cccc(Oc3ccccc3)c2)no1
Reply: 106

Query: Kindly indicate its recorded nuclei count. Item: O=C(CCSc1nc(-c2ccco2)cc(C(F)(F)F)n1)Nc1ccc2c(c1)OCO2
Reply: 161

Query: Supply measured nuclei count of CC1CCCC(C)N1C(=O)CSc1nnc(-c2cccs2)o1 (stereo not drawn) in your reply.
Reply: 101
